The reader will find reported viability, T/C values listed item by item below.
Test system: 695427-040-R-J1-PDC complex spheroid viability;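 note: viability read after seven days of drug exposure; 100% = DMSO vehicle control viability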
Run Description: Anticancer human tumor 695427-040-R-J1-PDC patient-derived colon adenocarcinoma cell line growth inhibition [RAS]
Conditions Used: second compound 0.3 µM; first compound 10 µM; active compounds read low
Measure: viability, T/C

INSERT INTO results (molecule, target_desc, observed_result) VALUES
  ('CC(C)NCC(C(=O)N1CCN(c2ncnc3c2C(C)CC3O)CC1)c1ccc(Cl)cc1 (stereo not drawn) + CCn1c(-c2cc(N3CCN(C)CC3)cnc2C(C)OC)c2c3cc(ccc31)-c1csc(n1)CC(NC(=O)C1CC1C)C(=O)N1CCCC(N1)C(=O)OCC(C)(C)C2', '695427-040-R-J1-PDC complex spheroid viability', '15.5%'),
  ('CCC(CC)c1cc(NC2CCC(N)C2)n2nccc2n1 (stereo not drawn) + CCn1c(-c2cc(N3CCN(C)CC3)cnc2C(C)OC)c2c3cc(ccc31)-c1csc(n1)CC(NC(=O)C1CC1C)C(=O)N1CCCC(N1)C(=O)OCC(C)(C)C2', '695427-040-R-J1-PDC complex spheroid viability', '15.5%'),
  ('CC(=O)OC12COC1CC(O)C1(C)C(=O)C(O)C3=C(C)C(OC(=O)C(O)C(NC(=O)OC(C)(C)C)c4ccccc4)CC(O)(C(OC(=O)c4ccccc4)C21)C3(C)C (stereo not drawn) + CCn1c(-c2cc(N3CCN(C)CC3)cnc2C(C)OC)c2c3cc(ccc31)-c1csc(n1)CC(NC(=O)C1CC1C)C(=O)N1CCCC(N1)C(=O)OCC(C)(C)C2', '695427-040-R-J1-PDC complex spheroid viability', '27.1%'),
  ('CC(=O)OC12COC1CC(O)C1(C)C(=O)C(O)C3=C(C)C(OC(=O)C(O)C(NC(=O)OC(C)(C)C)c4ccccc4)CC(O)(C(OC(=O)c4ccccc4)C21)C3(C)C (stereo not drawn) + CCn1c(-c2cccnc2C(C)OC)c2c3cc(ccc31)N1CCOC(CC(NC(=O)C(C(C)C)N(C)C(=O)C3(F)CCN(C(=O)C#CC(C)(C)N(C)C)CC3)C(=O)N3CCCC(N3)C(=O)OCC(C)(C)C2)C1', '695427-040-R-J1-PDC complex spheroid viability', '71.1%'),
  ('C[C@@H](NC(=O)c1ncnc(N)c1Cl)c1ncc(C(=O)Nc2cc(C(F)(F)F)c(Cl)cn2)s1 + CCn1c(-c2cc(N3CCN(C)CC3)cnc2C(C)OC)c2c3cc(ccc31)-c1csc(n1)CC(NC(=O)C1CC1C)C(=O)N1CCCC(N1)C(=O)OCC(C)(C)C2', '695427-040-R-J1-PDC complex spheroid viability', '33%'),
  ('CC(Nc1ccc2c(c1)OCCn1cc(N3C(=O)OCC3C(F)F)nc1-2)C(N)=O (stereo not drawn) + CCn1c(-c2cccnc2C(C)OC)c2c3cc(ccc31)N1CCOC(CC(NC(=O)C(C(C)C)N(C)C(=O)C3(F)CCN(C(=O)C#CC(C)(C)N(C)C)CC3)C(=O)N3CCCC(N3)C(=O)OCC(C)(C)C2)C1', '695427-040-R-J1-PDC complex spheroid viability', '42.1%'),
  ('CCC(CC)c1cc(NC2CCC(N)C2)n2nccc2n1 (stereo not drawn) + CCn1c(-c2cccnc2C(C)OC)c2c3cc(ccc31)N1CCOC(CC(NC(=O)C(C(C)C)N(C)C(=O)C3(F)CCN(C(=O)C#CC(C)(C)N(C)C)CC3)C(=O)N3CCCC(N3)C(=O)OCC(C)(C)C2)C1', '695427-040-R-J1-PDC complex spheroid viability', '11%'),
  ('C[C@@H](NC(=O)c1ncnc(N)c1Cl)c1ncc(C(=O)Nc2cc(C(F)(F)F)c(Cl)cn2)s1 + CCn1c(-c2cccnc2C(C)OC)c2c3cc(ccc31)N1CCOC(CC(NC(=O)C(C(C)C)N(C)C(=O)C3(F)CCN(C(=O)C#CC(C)(C)N(C)C)CC3)C(=O)N3CCCC(N3)C(=O)OCC(C)(C)C2)C1', '695427-040-R-J1-PDC complex spheroid viability', '67.9%');
